Target: purified human synovial sPLA2 (human Type IIA sPLA2) (Homo sapiens, UniProt P14555)
Construct: purchased Cayman Chemicals, USA
Sequence (P14555 21-144): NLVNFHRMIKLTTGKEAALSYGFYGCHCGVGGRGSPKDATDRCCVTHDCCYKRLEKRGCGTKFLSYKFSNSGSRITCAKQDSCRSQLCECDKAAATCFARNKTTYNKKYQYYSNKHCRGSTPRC
Assay: sPLA2 inhibition, 3H-arachidonate-labelled E. coli membrane assay
Type: biochemical
Conditions: fixed peptide concentration (5 μM); 3H-labelled E. coli membrane assay; read-out: % Inhibition (mean ± SD)
Where a SMILES comes first, the peptide text is derived from it.
ASSAY METRIC: inhibition at 5 µM (%)
Reply numerically in %, unit not repeated.

- COMPOUND: "CC[C@H](C)[C@H](NC(=O)[C@H](CC(=O)O)NC(=O)[C@@H](N)C(C)C)C(=O)N[C@@H](Cc1c[nH]cn1)C(=O)N[C@H](C(=O)N[C@@H](Cc1c[nH]c2ccccc12)C(=O)N[C@@H](CCC(=O)O)C(=O)NCC(=O)N[C@H](C(=O)O)C(C)C)C(C)C [D65E-PIP [59-67], VDIHVW (E) GV] (H-VDIHVWEGV-OH; N-terminus and C-terminus assumed)"
  ASSAY METRIC: "inhibition at 5 µM"
  NUMERIC RESULT: 57.6
- COMPOUND: "CC[C@H](C)[C@H](NC(=O)[C@H](CC(=O)O)NC(=O)[C@@H](N)C(C)C)C(=O)N[C@@H](Cc1c[nH]cn1)C(=O)N[C@H](C(=O)N[C@@H](Cc1c[nH]c2ccccc12)C(=O)N[C@@H](CC(=O)O)C(=O)NCC(=O)N[C@H](C(=O)O)C(C)C)C(C)C [PIP [59-67] monomer] (H-VDIHVWDGV-OH; N-terminus and C-terminus assumed)"
  ASSAY METRIC: "inhibition at 5 µM"
  NUMERIC RESULT: 56.4
- COMPOUND: "CC[C@H](C)[C@H](NC(=O)[C@H](CCC(=O)O)NC(=O)[C@@H](N)C(C)C)C(=O)N[C@@H](Cc1c[nH]cn1)C(=O)N[C@H](C(=O)N[C@@H](Cc1c[nH]c2ccccc12)C(=O)N[C@@H](CCC(=O)O)C(=O)NCC(=O)N[C@H](C(=O)O)C(C)C)C(C)C [D60,65E-PIP [59-67]] (H-VEIHVWEGV-OH; N-terminus and C-terminus assumed)"
  ASSAY METRIC: "inhibition at 5 µM"
  NUMERIC RESULT: 61.4

Entry CC[C@H](C)[C@H](NC(=O)[C@H](CC(=O)O)NC(=O)[C@@H](N)C(C)C)C(=O)N[C@@H](Cc1c[nH]cn1)C(=O)N[C@H](C(=O)N[C@@H](Cc1c[nH]c2ccccc12)C(=O)N[C@@H](C)C(=O)NCC(=O)N[C@H](C(=O)O)C(C)C)C(C)C [D65A-PIP [59-67], VDIHVW (A) GV] (H-VDIHVWAGV-OH; N-terminus and C-terminus assumed) ; inhibition at 5 µM = 48.5

---

Tested on: collagenase I (MMP-1)
Assay: Collagenase activity assay, collagen thin film (collagen type II substrate)
Format: biochemical
Settings: collagen thin film, collagen type II; peptide concentration not given
Labelling field: enter Satisfied if recorded Collagenase (% Inhibition) is less than 60%. Enter Not satisfied if it equals or exceeds that cut-off.

- MONOMER SEQUENCE: "LGRVDIHVWDGVYIRG [PIP [56-71], P-NT.II analogue]"
  ANSWER LABEL: "Not satisfied"

Incoming: Below 60% on Collagenase (% Inhibition)? Entry VDIHVWDGVYIRGR [PIP [59-72], P-NT.II analogue]
Outgoing: Satisfied

Incoming: Below 60% on Collagenase (% Inhibition)? Entry GRVDIHVWDGVYIRGR [PIP [57-72], P-NT.II analogue]
Outgoing: Satisfied

---

Tested on: collagenase I (MMP-1)
Experiment: Collagenase activity assay, collagen thin film (collagen type II substrate)
Format: biochemical
Details: collagen thin film, collagen type II; peptide concentration not given
ASSAY METRIC: Collagenase (% Inhibition)
Note: state the figure and append the unit.

- SUBSTANCE: "GRVDIHVWDGV [PIP [57-67], P-NT.II analogue]"
  EXPERIMENTAL TARGET: "collagenase I (MMP-1)"
  RESULT: "65.1 ± 3.3%"

Entry RVDIHVWDGVYIRGR [PIP [58-72], P-NT.II analogue] ; Collagenase (% Inhibition) = 23.3 ± 2.9%

Entry DIHVWDG [PIP [60-66], P-NT.II analogue] ; Collagenase (% Inhibition) = 4.7 ± 2.6%

Entry LGRVDIHVWDGVYIR [PIP [56-70], P-NT.II analogue] ; Collagenase (% Inhibition) = 60.6 ± 4.5%

---

Target: purified human synovial sPLA2 (human Type IIA sPLA2) (Homo sapiens, UniProt P14555)
Construct: purchased Cayman Chemicals, USA
Experiment: sPLA2 inhibition, 3H-arachidonate-labelled E. coli membrane assay
Assay type: biochemical
Settings: fixed peptide concentration (5 μM); 3H-labelled E. coli membrane assay; read-out: % Inhibition (mean ± SD)
Where a SMILES comes first, the peptide text is derived from it.
ASSAY METRIC: inhibition at 5 µM (%)
Reply numerically in %, unit not repeated.

Entry CC[C@H](C)[C@H](NC(=O)[C@H](CC(=O)O)NC(=O)[C@@H](N)C(C)C)C(=O)N[C@@H](Cc1c[nH]cn1)C(=O)N[C@H](C(=O)N[C@@H](Cc1c[nH]c2ccccc12)C(=O)N[C@@H](CO)C(=O)NCC(=O)N[C@H](C(=O)O)C(C)C)C(C)C [D655-PIP [59-67], VDIHVW (S) GV] (H-VDIHVWSGV-OH; N-terminus and C-terminus assumed) ; inhibition at 5 µM = 52.5
